molecular target: human luteinizing hormone (hLH) (Homo sapiens, UniProt P01215;P01229 P01215:25-116,P01229:21-141); assay: filter; details: tags: Becton Dickinson (2'-NH2 work); Scripps/Vitro Diagnostics (2'-F work); chain copies: alpha/beta heterodimer (inferred); label: 32P; G4 (RNase T1 protection in K+)
Sequence (P01215 25-116, chain 1 of 2): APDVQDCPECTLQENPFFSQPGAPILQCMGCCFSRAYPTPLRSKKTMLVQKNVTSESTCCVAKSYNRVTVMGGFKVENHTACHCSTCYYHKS
Sequence (P01229 21-141, chain 2 of 2): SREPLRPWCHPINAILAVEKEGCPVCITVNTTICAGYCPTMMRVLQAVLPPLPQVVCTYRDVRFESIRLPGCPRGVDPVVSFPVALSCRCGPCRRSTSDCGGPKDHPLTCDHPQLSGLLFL
pKd: −log10 of the molar value.
RECORDED ENDPOINT: pKd

- H-25 (ssRNA, 2'-NH2 all pyrimidines) RNA: GGGAGGACGAUGCGGAAAGGAGGAGGCUGGGUGCGUCAAGAGUUCUCCCGAGCGCCAGACGACUCGCCCGA: 7.76
